Assign log10(IC50) to each entry below.
# tested.on: Gamma-secretase
# assay.comment: Inhibition of gamma secretase assessed as reduction of amyloid beta level in H4 cells
# Type: cell-based, Homo sapiens
Note: values are log10 of IC50 expressed in nM.

-- ask Can you share its log10(IC50)? I mean this compound: CC1=NN(C)C(=O)C(NC(=O)[C@H](C)NC(=O)Cc2cc(F)cc(F)c2)c2ccccc21 (stereo partly drawn)
-- reply 0.11

-- ask Can you share its log10(IC50)? I mean this compound: C[C@H](NC(=O)[C@@H](O)c1cc(F)cc(F)c1)C(=O)NC1C(=O)N(C)N=Cc2ccccc21 (stereo partly drawn)
-- reply -0.70

-- ask Can you share its log10(IC50)? I mean this compound: C[C@H](NC(=O)Cc1ccsc1)C(=O)NC1C(=O)N(C)N=Cc2ccccc21 (stereo partly drawn)
-- reply 0.00

-- ask Can you share its log10(IC50)? I mean this compound: C[C@H](NC(=O)Cc1ccc(F)cc1)C(=O)NC1C(=O)N(C)N=Cc2ccccc21 (stereo partly drawn)
-- reply 1.77

-- ask Can you share its log10(IC50)? I mean this compound: CC(C)C[C@H](NC(=O)Cc1cccs1)C(=O)NC1C(=O)N(C)N=Cc2ccccc21 (stereo partly drawn)
-- reply 0.28

-- ask Can you share its log10(IC50)? I mean this compound: C[C@H](NC(=O)Cc1cccc(F)c1)C(=O)NC1C(=O)N(C)N=Cc2ccccc21 (stereo partly drawn)
-- reply 0.90

-- ask Can you share its log10(IC50)? I mean this compound: C[C@H](NC(=O)Cc1cc(F)cc(F)c1)C(=O)NC1C(=O)N(C)N=Cc2ccccc21 (stereo partly drawn)
-- reply 0.78

-- ask Can you share its log10(IC50)? I mean this compound: C[C@H](NC(=O)Cc1ccco1)C(=O)NC1C(=O)N(C)N=Cc2ccccc21 (stereo partly drawn)
-- reply 1.38

-- ask Can you share its log10(IC50)? I mean this compound: "C[C@H](NC(=O)[C@@H](O)c1cc(F)cc(F)c1)C(=O)N[C@H]1C(=O)N(C)N=Cc2ccccc21"
-- reply 1.48

-- ask Can you share its log10(IC50)? I mean this compound: CC(C)C[C@H](NC(=O)Cc1ccsc1)C(=O)NC1C(=O)N(C)N=Cc2ccccc21 (stereo partly drawn)
-- reply -0.15

-- ask Can you share its log10(IC50)? I mean this compound: C[C@H](NC(=O)Cc1cccc(Cl)c1)C(=O)NC1C(=O)N(C)N=Cc2ccccc21 (stereo partly drawn)
-- reply 1.00

-- ask Can you share its log10(IC50)? I mean this compound: CC(C)C[C@H](NC(=O)CC1CCCCC1)C(=O)NC1C(=O)N(C)N=Cc2ccccc21 (stereo partly drawn)
-- reply 1.15

-- ask Can you share its log10(IC50)? I mean this compound: "C[C@H](NC(=O)[C@H](O)c1cc(F)cc(F)c1)C(=O)N[C@H]1C(=O)N(C)N=Cc2ccccc21"
-- reply 2.88

-- ask Can you share its log10(IC50)? I mean this compound: CC(C)C[C@H](NC(=O)Cc1ccccc1F)C(=O)NC1C(=O)N(C)N=Cc2ccccc21 (stereo partly drawn)
-- reply 1.34

-- ask Can you share its log10(IC50)? I mean this compound: CC(C)C[C@H](NC(=O)[C@@H](O)c1ccccc1)C(=O)NC1C(=O)N(C)N=Cc2ccccc21 (stereo partly drawn)
-- reply -0.40

-- ask Can you share its log10(IC50)? I mean this compound: C[C@H](NC(=O)CC1CCCCC1)C(=O)NC1C(=O)N(C)N=Cc2ccccc21 (stereo partly drawn)
-- reply 1.63

-- ask Can you share its log10(IC50)? I mean this compound: C[C@H](NC(=O)Cc1ccc2ccccc2c1)C(=O)NC1C(=O)N(C)N=Cc2ccccc21 (stereo partly drawn)
-- reply 2.43

-- ask Can you share its log10(IC50)? I mean this compound: CC(C)C[C@H](NC(=O)Cc1cc(F)cc(F)c1)C(=O)NC1C(=O)N(C)N=Cc2ccccc21 (stereo partly drawn)
-- reply -0.30
